Cited source: paper PMC9482650

biological target: LIMK2, P53671; assay: holdup assay; set-up: key: below the threshold = too weak to quantify, mostly under pKd 3.1 to 4; details: plain residues with an end cap or a label only (N-terminal biotin on a linker: ado-ado)
Sequence (P53671 143-248): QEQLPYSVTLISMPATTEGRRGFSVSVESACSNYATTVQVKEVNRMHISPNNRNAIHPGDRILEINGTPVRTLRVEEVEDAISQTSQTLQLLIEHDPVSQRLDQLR
Readout Type: pKd

Here's what some known entries look like.
HLSTRQGTCV [ATRNL1, Q5VV63]; below the threshold
DSEEELPTRL [GRK6, P43250]; below the threshold
PSVYSRSQYV [CLDN8, P56748]; below the threshold
TNSKQGETTV [FZD1, Q9UP38]; below the threshold
QRYPGNQTTC [CCL24, O00175]; below the threshold
SKQFDKNAYV [CLDN10, P78369]; below the threshold
TKEIPNCTSV [SORCS3, Q9UPU3]; below the threshold

Here is the next item to consider.
Which pKd value is on record for HYPASPDSWV [CTNND2, Q9UQB3] ?
below the threshold
